pIC50: −log10 of the molar value.
// Nitric oxide synthase, inducible (Mus musculus) pIC50 records
PROPERTY_MEASURED: pIC50

SMI	OBSERVED_MEASUREMENT
N=CNCCC[C@H](N)C(=O)O	6.40
CC(=N)NCCC[C@H](N)C(=O)O	5.09
CC(C)C(=N)NCCC[C@H](N)C(=O)O	3.86
CC(C)(C)C(=N)NCCC[C@H](N)C(=O)O	3.49

====

As an illustration, consider measured Ki for molecules on Nitric oxide synthase, inducible (Mus musculus).
Sequence (P29477 whole entry): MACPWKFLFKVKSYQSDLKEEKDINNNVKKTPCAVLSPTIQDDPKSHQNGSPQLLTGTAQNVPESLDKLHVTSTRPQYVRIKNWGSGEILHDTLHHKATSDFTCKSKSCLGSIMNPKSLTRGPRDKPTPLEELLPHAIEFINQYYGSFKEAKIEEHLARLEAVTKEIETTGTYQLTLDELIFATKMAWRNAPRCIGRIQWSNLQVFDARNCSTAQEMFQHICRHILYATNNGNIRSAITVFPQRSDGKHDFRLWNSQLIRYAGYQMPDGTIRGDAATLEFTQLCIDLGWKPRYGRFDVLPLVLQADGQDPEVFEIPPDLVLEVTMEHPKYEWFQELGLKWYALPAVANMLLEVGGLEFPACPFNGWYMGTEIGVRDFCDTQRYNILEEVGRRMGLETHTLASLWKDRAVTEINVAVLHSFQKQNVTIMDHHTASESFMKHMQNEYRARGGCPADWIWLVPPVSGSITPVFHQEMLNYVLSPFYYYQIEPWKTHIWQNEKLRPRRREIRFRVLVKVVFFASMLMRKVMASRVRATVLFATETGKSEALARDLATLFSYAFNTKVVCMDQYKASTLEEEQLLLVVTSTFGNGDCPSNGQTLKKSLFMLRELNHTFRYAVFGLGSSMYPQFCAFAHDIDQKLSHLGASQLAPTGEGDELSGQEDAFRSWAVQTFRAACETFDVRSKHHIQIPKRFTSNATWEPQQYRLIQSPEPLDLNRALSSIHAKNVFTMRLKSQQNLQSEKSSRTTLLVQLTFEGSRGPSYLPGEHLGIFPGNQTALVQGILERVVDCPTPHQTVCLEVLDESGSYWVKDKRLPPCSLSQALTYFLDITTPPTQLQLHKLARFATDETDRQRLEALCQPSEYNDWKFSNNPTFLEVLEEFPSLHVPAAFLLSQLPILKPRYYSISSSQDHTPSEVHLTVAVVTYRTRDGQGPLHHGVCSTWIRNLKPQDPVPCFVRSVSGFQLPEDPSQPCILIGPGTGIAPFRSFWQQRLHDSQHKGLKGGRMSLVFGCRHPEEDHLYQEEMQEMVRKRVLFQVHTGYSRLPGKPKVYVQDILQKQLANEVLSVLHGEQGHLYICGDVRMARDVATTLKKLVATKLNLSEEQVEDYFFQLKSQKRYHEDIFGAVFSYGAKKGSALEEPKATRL

SMI	READOUT_UNITS	Ki
CC(C)(C)C(=N)NCCC[C@H](N)C(=O)O	µM	146
CCC(=N)NCCC[C@H](N)C(=O)O	µM	7.25
